Target: N-type calcium channel (Homo sapiens, UniProt Q00975)
Sequence (Q00975 whole entry): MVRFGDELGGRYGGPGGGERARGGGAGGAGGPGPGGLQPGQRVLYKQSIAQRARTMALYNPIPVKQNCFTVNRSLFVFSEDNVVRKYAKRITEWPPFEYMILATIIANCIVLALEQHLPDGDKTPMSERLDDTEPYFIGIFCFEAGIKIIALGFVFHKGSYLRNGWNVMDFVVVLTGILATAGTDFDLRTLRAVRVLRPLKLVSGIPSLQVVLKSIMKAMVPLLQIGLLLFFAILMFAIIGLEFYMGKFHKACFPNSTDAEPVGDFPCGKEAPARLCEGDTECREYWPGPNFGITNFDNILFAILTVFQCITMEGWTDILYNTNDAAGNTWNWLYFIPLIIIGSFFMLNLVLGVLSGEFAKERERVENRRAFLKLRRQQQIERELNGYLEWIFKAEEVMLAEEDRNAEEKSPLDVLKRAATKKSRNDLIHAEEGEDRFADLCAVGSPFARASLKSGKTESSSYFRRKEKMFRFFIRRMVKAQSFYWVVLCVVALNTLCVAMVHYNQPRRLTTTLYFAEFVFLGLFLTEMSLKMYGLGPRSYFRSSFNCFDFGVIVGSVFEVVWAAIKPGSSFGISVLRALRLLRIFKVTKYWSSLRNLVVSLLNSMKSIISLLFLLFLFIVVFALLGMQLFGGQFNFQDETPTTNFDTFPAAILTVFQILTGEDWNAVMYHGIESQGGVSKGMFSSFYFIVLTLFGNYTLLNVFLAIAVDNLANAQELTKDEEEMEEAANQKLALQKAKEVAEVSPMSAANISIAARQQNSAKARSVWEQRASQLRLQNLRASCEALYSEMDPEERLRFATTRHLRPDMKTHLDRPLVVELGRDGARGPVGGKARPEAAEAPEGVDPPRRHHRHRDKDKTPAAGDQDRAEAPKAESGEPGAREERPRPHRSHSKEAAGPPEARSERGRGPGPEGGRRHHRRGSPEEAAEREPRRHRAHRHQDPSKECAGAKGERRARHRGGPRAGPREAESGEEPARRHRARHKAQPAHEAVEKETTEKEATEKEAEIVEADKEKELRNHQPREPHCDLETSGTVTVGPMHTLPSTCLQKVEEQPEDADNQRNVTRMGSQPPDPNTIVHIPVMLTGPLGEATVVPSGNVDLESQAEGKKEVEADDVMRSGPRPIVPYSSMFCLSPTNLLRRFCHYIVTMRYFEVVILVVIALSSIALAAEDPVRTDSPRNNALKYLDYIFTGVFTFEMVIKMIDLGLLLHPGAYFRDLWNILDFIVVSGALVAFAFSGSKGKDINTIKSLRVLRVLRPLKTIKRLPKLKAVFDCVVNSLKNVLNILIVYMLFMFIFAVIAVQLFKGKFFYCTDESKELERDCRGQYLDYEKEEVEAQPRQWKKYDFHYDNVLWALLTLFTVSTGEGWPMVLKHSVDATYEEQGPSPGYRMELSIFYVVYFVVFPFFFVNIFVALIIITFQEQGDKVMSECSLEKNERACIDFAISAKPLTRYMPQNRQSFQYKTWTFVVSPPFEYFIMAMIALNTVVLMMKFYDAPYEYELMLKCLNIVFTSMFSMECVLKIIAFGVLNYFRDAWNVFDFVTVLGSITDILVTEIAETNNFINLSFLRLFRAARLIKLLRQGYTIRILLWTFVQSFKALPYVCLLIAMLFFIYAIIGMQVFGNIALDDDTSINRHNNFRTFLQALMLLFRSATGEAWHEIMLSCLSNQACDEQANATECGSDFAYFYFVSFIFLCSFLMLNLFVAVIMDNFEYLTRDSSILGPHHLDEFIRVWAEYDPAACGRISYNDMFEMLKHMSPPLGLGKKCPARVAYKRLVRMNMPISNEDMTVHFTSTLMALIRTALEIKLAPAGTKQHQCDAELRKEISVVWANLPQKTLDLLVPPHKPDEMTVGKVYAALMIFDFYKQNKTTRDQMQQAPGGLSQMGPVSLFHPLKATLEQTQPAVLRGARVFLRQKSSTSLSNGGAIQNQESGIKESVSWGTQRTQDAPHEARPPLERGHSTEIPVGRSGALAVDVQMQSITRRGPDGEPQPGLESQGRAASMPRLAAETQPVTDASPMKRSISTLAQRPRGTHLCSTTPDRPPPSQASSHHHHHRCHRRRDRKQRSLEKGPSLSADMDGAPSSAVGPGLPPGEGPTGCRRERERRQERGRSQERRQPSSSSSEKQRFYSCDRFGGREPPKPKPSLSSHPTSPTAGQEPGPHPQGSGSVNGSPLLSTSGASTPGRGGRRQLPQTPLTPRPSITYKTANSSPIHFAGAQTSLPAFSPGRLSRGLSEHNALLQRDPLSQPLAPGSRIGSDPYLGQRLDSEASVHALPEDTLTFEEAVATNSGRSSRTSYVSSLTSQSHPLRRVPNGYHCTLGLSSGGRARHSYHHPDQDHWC
Sequence (P54284 whole entry partner): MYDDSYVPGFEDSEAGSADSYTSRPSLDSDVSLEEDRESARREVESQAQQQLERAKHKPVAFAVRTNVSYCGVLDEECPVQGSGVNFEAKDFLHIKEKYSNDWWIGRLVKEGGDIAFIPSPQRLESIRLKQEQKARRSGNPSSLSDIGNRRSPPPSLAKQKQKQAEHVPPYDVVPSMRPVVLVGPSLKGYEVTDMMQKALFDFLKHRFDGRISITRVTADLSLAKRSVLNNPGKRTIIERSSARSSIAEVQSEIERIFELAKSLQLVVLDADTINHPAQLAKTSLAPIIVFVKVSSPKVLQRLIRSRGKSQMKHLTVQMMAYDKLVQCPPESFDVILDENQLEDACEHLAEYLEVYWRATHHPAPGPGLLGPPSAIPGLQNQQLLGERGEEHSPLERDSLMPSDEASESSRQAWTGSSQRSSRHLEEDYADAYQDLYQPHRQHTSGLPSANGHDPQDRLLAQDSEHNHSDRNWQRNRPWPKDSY
Sequence (P54289 25-946 partner limits assumed): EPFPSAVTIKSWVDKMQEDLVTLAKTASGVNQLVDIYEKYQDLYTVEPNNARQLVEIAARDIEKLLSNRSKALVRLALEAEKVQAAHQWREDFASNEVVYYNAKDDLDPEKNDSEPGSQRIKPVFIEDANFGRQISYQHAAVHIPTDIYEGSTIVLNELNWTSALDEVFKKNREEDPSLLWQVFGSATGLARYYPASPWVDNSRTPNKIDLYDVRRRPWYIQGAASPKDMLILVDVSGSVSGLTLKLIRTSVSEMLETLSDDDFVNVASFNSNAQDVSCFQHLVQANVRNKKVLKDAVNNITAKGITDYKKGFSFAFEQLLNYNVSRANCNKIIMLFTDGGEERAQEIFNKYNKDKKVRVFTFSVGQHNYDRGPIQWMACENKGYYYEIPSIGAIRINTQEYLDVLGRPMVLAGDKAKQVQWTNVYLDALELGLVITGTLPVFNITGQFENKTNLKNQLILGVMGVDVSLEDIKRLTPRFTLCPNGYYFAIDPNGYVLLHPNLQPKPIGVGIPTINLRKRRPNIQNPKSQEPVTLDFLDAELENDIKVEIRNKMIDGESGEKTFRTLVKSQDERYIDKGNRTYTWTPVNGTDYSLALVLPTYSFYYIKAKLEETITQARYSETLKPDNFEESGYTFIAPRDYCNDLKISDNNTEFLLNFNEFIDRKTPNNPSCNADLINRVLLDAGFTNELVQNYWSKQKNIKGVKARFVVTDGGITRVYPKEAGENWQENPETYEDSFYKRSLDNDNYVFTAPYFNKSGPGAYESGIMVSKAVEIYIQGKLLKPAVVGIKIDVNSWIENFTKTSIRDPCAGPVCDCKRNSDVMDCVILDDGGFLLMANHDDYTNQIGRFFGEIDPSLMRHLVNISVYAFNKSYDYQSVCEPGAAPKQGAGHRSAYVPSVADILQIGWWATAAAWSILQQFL
Sequence (P54289 947-1103 partner limits assumed): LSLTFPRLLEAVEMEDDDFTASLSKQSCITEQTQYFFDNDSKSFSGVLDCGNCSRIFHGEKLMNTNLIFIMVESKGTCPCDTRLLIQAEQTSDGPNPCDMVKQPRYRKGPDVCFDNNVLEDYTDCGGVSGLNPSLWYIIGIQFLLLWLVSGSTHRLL
Assay: Automated Electrophysiology Assay (QPatch-HT whole-cell patch clamp; low- and high-frequency stimulation)
Type: cell-based
Details: low frequency; 0.1 μM; read-out: QPatch at Low Frequency % Inhibition
Measure name: inhibition at 0.1 µM (%)

Example entries begin here.
[
  {
    "Compound": "COc1ccccc1-n1nc2c(c1-c1ccc(Cl)cc1)C[C@H](O[Si](C)(C)C)C2 [Compound 69]",
    "System tested": "N-type calcium channel (Homo sapiens, UniProt Q00975)",
    "Measure name": "inhibition at 0.1 µM",
    "Experimental result": 15
  },
  {
    "Compound": "CCOc1ccccc1-n1nc2c(c1-c1ccc(Cl)cc1)CC(n1ccnc1)C2 (centres unmarked) [Compound 39]",
    "System tested": "N-type calcium channel (Homo sapiens, UniProt Q00975)",
    "Measure name": "inhibition at 0.1 µM",
    "Experimental result": 13
  }
]

I. CCOc1ccccc1-n1nc2c(c1-c1ccc(Cl)cc1)CC(n1cc([Si](C)(C)C)nn1)C2 (centres unmarked) [Compound 41]
II. CCOc1ccccc1-n1nc2c(c1-c1ccc(Cl)cc1)C[C@@H](N(C)S(=O)(=O)N(C)C)C2 [Compound 46]
III. COc1ccccc1-n1nc2c(c1-c1ccc(Cl)cc1)C[C@H](OC(=O)C(C)C)C2 [Compound 81]
**Query** Order the items by recorded inhibition at 0.1 µM; the first position goes to the largest value. As an answer, provide the labels arranged in the order called for.
**Result** I, II, III
(I: 58%, II: 21%, III: -4%)

Origin of measurements: patent US8853418B2
